- Test system: Escherichia coli TOP10;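 note: peptides expressed intracellularly from a pBAD plasmid library in pooled LB shake-flask culture, induced with 0.3% L-arabinose, DNA abundance read by NGS, three biological replicates, DESeq2 with apeglm shrinkage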
- Assay summary: shrunken log2 fold change of peptide-encoding DNA abundance (4.5 h post-induction vs induction); higher = less antimicrobial activity (less host growth inhibition)
- Protocol conditions: time post-induction: 4.5 h; library: site-saturation at positions 5, 18, 19, 20
Everything with shrunken log2 fold change lower than -0.04 is not met; everything else, including exactly -0.04, is met.

-- ask Reported shrunken log2 fold change reaches at least -0.04 for RRIRPRPPRLPRPRPRPFVMPRP ?
-- reply not met

-- ask Is it the case that RRIRIRPPRLPRPRPRPCTPPRP has shrunken log2 fold change reaching or exceeding -0.04?
-- reply not met

-- ask Check the entry RRIRARPPRLPRPRPRPCFPPRP : does shrunken log2 fold change equal or exceed -0.04?
-- reply not met

-- ask Quick check, shrunken log2 fold change >= -0.04? RRIRKRPPRLPRPRPRPCDAPRP
-- reply met

-- ask Exam item: decide whether the reported shrunken log2 fold change for RRIRMRPPRLPRPRPRPELSPRP is at least -0.04.
-- reply met

-- ask Please check the record RRIRNRPPRLPRPRPRPERAPRP and state if its shrunken log2 fold change is at or above -0.04.
-- reply met

-- ask Does shrunken log2 fold change meet or surpass -0.04 for RRIRHRPPRLPRPRPRPYTAPRP ?
-- reply not met

-- ask shrunken log2 fold change >= -0.04 for RRIRFRPPRLPRPRPRPNTVPRP ?
-- reply not met

-- ask Say whether RRIRERPPRLPRPRPRPHMIPRP shows shrunken log2 fold change of -0.04 or more.
-- reply met

-- ask Say whether RRIRARPPRLPRPRPRPSCWPRP shows shrunken log2 fold change of -0.04 or more.
-- reply met

-- ask hey, is shrunken log2 fold change for this one >= -0.04? RRIRIRPPRLPRPRPRPTWKPRP
-- reply not met

-- ask Is shrunken log2 fold change at least -0.04? Consider RRIRVRPPRLPRPRPRPQQWPRP
-- reply met

-- ask Reported shrunken log2 fold change at or above -0.04? RRIRSRPPRLPRPRPRPTSEPRP
-- reply met

-- ask Please check the record RRIRDRPPRLPRPRPRPKSQPRP and state if its shrunken log2 fold change is at or above -0.04.
-- reply met

-- ask Kindly determine if shrunken log2 fold change recorded for RRIRDRPPRLPRPRPRPPSGPRP is above or exactly -0.04.
-- reply met

-- ask // inclusive: shrunken log2 fold change at least -0.04? input: RRIRWRPPRLPRPRPRPWRWPRP
-- reply met

-- ask Could you verify whether the entry RRIRRRPPRLPRPRPRPHMPPRP shows shrunken log2 fold change of no less than -0.04?
-- reply met

-- ask Given RRIRGRPPRLPRPRPRPMLTPRP , state whether its shrunken log2 fold change is at least -0.04.
-- reply met

-- ask Say whether RRIRTRPPRLPRPRPRPMMDPRP shows shrunken log2 fold change of -0.04 or more.
-- reply not met
